- experimental.setup: pyrazoline bound to SilMA, derived from the named DAT, pH 3
reported.metric: Excitation λmax (nm)
Give the number; nm is assumed, so skip it.

INSERT INTO results (compound, measurement) VALUES
  ('O=C(O)c1ccc(-c2nnn(-c3ccc(S(=O)(=O)O)cc3)n2)cc1 [DAT-3]', 385);

For the compound Nc1cccc(-c2nnn(-c3ccccc3)n2)c1 [DAT-9, 5-(3-aminophenyl)-2-phenyl-2H-tetrazole] , what Excitation λmax is on record? 365

Cool, now CCOC(=O)c1ccc(-n2nnc(-c3ccc(C(=O)O)cc3)n2)cc1 [DAT-2] 370

Cool, now O=C(O)c1ccc(-c2nnn(-c3ccc(O)cc3)n2)cc1 [DAT-4] 335

Cool, now O=C(O)c1ccc(-c2nnn(-c3ccc(B(O)O)cc3)n2)cc1 [DAT-5] 370

###

- experimental.setup: pyrazoline bound to SilMA, derived from the named DAT, pH 10
reported.metric: Excitation λmax (nm)
Give the number; nm is assumed, so skip it.

INSERT INTO measurements (compound, reported_metric, measurement) VALUES
  ('O=C(O)c1ccc(-c2nnn(-c3ccc(B(O)O)cc3)n2)cc1 [DAT-5]', 'Excitation λmax', 380),
  ('Oc1ccc(-c2nnn(-c3ccccc3)n2)cc1 [DAT-10]', 'Excitation λmax', 355),
  ('O=C(O)c1ccc(-c2nnn(-c3ccc(S(=O)(=O)O)cc3)n2)cc1 [DAT-3]', 'Excitation λmax', 375),
  ('CCOC(=O)c1ccc(-n2nnc(-c3ccc(C(=O)O)cc3)n2)cc1 [DAT-2]', 'Excitation λmax', 350),
  ('O=C(O)c1ccc(-c2nnn(-c3ccc(O)cc3)n2)cc1 [DAT-4]', 'Excitation λmax', 360);

Okay, now this compound:
For the compound Nc1cccc(-c2nnn(-c3ccccc3)n2)c1 [DAT-9, 5-(3-aminophenyl)-2-phenyl-2H-tetrazole] , what Excitation λmax is on record? 375

###

Let's look at some compounds and their measured Excitation λmax.
- experimental.setup: DAT precursor, UV-Vis absorption, peak 1

Would you please look over these solved cases?
INSERT INTO measurements (given_smiles, measurement) VALUES
  ('O=C(O)c1ccc(-c2nnn(-c3ccc(O)cc3)n2)cc1', '296 nm'),
  ('CCOC(=O)c1ccc(-n2nnc(-c3ccc(C(=O)O)cc3)n2)cc1', '265 nm'),
  ('O=C(O)c1ccc(-c2nnn(-c3ccc(B(O)O)cc3)n2)cc1', '285 nm'),
  ('O=C(O)c1ccc(-c2nnn(-c3ccc(S(=O)(=O)O)cc3)n2)cc1', '279 nm');

For the compound O=[N+]([O-])c1ccc(-c2nnn(-c3ccccc3)n2)cc1 , what Excitation λmax is on record? 296 nm

Cool, now O=[N+]([O-])c1cccc(-c2nnn(-c3ccccc3)n2)c1 266 nm

Cool, now Nc1ccc(-c2nnn(-c3ccccc3)n2)cc1 294 nm

Cool, now Oc1ccc(-c2nnn(-c3ccccc3)n2)cc1 253 nm

Cool, now Nc1cccc(-c2nnn(-c3ccccc3)n2)c1 271 nm

###

- experimental.setup: pyrazoline bound to SilMA, derived from the named DAT, pH 10
reported.metric: Emission λmax (nm)
Give the number; nm is assumed, so skip it.

INSERT INTO assay_data (given_smiles, reported_metric, units_symbol, measurement) VALUES
  ('O=C(O)c1ccc(-c2nnn(-c3ccc(B(O)O)cc3)n2)cc1', 'Emission λmax', 'nm', 475),
  ('CCOC(=O)c1ccc(-n2nnc(-c3ccc(C(=O)O)cc3)n2)cc1', 'Emission λmax', 'nm', 455),
  ('Nc1cccc(-c2nnn(-c3ccccc3)n2)c1', 'Emission λmax', 'nm', 460),
  ('O=C(O)c1ccc(-c2nnn(-c3ccc(S(=O)(=O)O)cc3)n2)cc1', 'Emission λmax', 'nm', 460),
  ('Oc1ccc(-c2nnn(-c3ccccc3)n2)cc1', 'Emission λmax', 'nm', 435);

For the compound O=C(O)c1ccc(-c2nnn(-c3ccc(O)cc3)n2)cc1 , what Emission λmax is on record? 530
